Biological target: VIM-2 metallo β-lactamase (Pseudomonas aeruginosa)
Construct: made in house
Experiment: β-lactamase enzyme inhibition assay (nitrocefin substrate), VIM-2
Assay type: biochemical
Details: nitrocefin 100 μM, 37° C., PBS pH 7.0; read-out: VIM-2 IC50
Counter-ions that a name gives are not always drawn.
Below is a list of entries, each paired with its recorded pIC50 value.
Please note pIC50 is a logarithmic value: minus log10 of concentration in mol/L. Answer with that number alone.

Completed entries (count: 5):
compound=O=C(N[C@@H](Cc1cccc(C(=O)O)c1O)B(O)O)c1cccc(CNCc2cccnc2)c1 quantity_kind=pIC50 experimental_result=6.29
compound="Nc1cc(CC(=O)N[C@@H](Cc2cccc(C(=O)O)c2O)B(O)O)ccn1 [Example 45, formate]" quantity_kind=pIC50 experimental_result=6.09
compound=CNCc1ccc(CC(=O)N[C@@H](Cc2cccc(C(=O)O)c2O)B(O)O)cc1 quantity_kind=pIC50 experimental_result=6.47
compound="Cl.Nc1nc(/C(=N/O)C(=O)N[C@@H](Cc2cccc(C(=O)O)c2O)B(O)O)cs1 [Example 49, hydrochloride]" quantity_kind=pIC50 experimental_result=6.23
compound=O=C(Cc1ccc(CN(CCO)CCO)cc1)N[C@@H](Cc1cccc(C(=O)O)c1O)B(O)O quantity_kind=pIC50 experimental_result=6.33

Now consider a different compound.
May I ask what pIC50 has been recorded for Cl.Nc1cncc(C(=O)N[C@@H](Cc2cccc(C(=O)O)c2O)B(O)O)c1 [Example 44, hydrochloride] ? 6.16

====

Below is a list of entries, each paired with its recorded MIC of example compound, K. pneumoniae KPC-2 value.
System: K. pneumoniae expressing the Class A carbapenemase KPC-2
Test: microbe, parasite or virus in culture
Format: cell-based
Conditions: in presence of Ceftazidime 8 μg/ml (Examples 1-56)
Counter-ions that a name gives are not always drawn.
State the answer as a number, implicitly in µg/mL.

Completed entries (count: 4):
compound="CNCc1ccc(CC(=O)N[C@@H](Cc2cccc(C(=O)O)c2O)B(O)O)cc1 [Example 33]" system="K. pneumoniae expressing the Class A carbapenemase KPC-2" experimental_result=0.06
compound="Cl.O=C(N[C@@H](Cc1cccc(C(=O)O)c1O)B(O)O)c1ccc(CNCCO)cc1 [Example 16]" system="K. pneumoniae expressing the Class A carbapenemase KPC-2" experimental_result=0.03
compound="O=C(N[C@@H](Cc1cccc(C(=O)O)c1O)B(O)O)c1cccc(CNc2nccs2)c1 [Example 31]" system="K. pneumoniae expressing the Class A carbapenemase KPC-2" experimental_result=0.25
compound="Cl.O=C(N[C@@H](Cc1cccc(C(=O)O)c1O)B(O)O)c1ccc(CN2CCCC(C(=O)O)C2)cc1 (some centres unmarked) [Example 12]" system="K. pneumoniae expressing the Class A carbapenemase KPC-2" experimental_result=0.03

GET /values?readout=MIC of example compound, K. pneumoniae KPC-2&system=K. pneumoniae expressing the Class A carbapenemase KPC-2&item= Nc1ccc(CC(=O)N[C@@H](Cc2cccc(C(=O)O)c2O)B(O)O)cn1 [Example 46] 0.007

GET /values?readout=MIC of example compound, K. pneumoniae KPC-2&system=K. pneumoniae expressing the Class A carbapenemase KPC-2&item= CCC(=O)C(=O)N[C@@H](Cc1cccc(C(=O)O)c1O)B(O)O [Example 56] 0.25

GET /values?readout=MIC of example compound, K. pneumoniae KPC-2&system=K. pneumoniae expressing the Class A carbapenemase KPC-2&item= O=C(Cc1ccc(CNCCO)cc1)N[C@@H](Cc1cccc(C(=O)O)c1O)B(O)O [Example 34] 0.03

GET /values?readout=MIC of example compound, K. pneumoniae KPC-2&system=K. pneumoniae expressing the Class A carbapenemase KPC-2&item= C[N+]1(Cc2ccc(CC(=O)N[C@@H](Cc3cccc(C(=O)O)c3O)B(O)O)cc2)CCOCC1 [Example 41, formate] 0.03

GET /values?readout=MIC of example compound, K. pneumoniae KPC-2&system=K. pneumoniae expressing the Class A carbapenemase KPC-2&item= O=C(N[C@@H](Cc1cccc(C(=O)O)c1O)B(O)O)c1cccc(CNc2cccnc2)c1 [Example 26] 0.5

GET /values?readout=MIC of example compound, K. pneumoniae KPC-2&system=K. pneumoniae expressing the Class A carbapenemase KPC-2&item= Cl.Nc1cncc(C(=O)N[C@@H](Cc2cccc(C(=O)O)c2O)B(O)O)c1 [Example 44] 0.015

GET /values?readout=MIC of example compound, K. pneumoniae KPC-2&system=K. pneumoniae expressing the Class A carbapenemase KPC-2&item= O=C(N[C@@H](Cc1cccc(C(=O)O)c1O)B(O)O)c1cccc(CN(CCO)CCO)c1 [Example 23] 0.12

GET /values?readout=MIC of example compound, K. pneumoniae KPC-2&system=K. pneumoniae expressing the Class A carbapenemase KPC-2&item= C/C(=N/O)C(=O)N[C@@H](Cc1cccc(C(=O)O)c1O)B(O)O [Example 54] 0.03

GET /values?readout=MIC of example compound, K. pneumoniae KPC-2&system=K. pneumoniae expressing the Class A carbapenemase KPC-2&item= O=C(Cc1ccc(CN(CCO)CCO)cc1)N[C@@H](Cc1cccc(C(=O)O)c1O)B(O)O [Example 39] 0.03

GET /values?readout=MIC of example compound, K. pneumoniae KPC-2&system=K. pneumoniae expressing the Class A carbapenemase KPC-2&item= O=C(N[C@@H](Cc1cccc(C(=O)O)c1O)B(O)O)c1ccc(C[n+]2ccccc2)cc1 [Example 14] 0.01

====

Test system: E. cloacae expressing the Class C P99+
Test: In vitro antibacterial assay of β-lactamase inhibition (broth microdilution MIC), E. cloacae P99+
Format: cell-based
Settings: in presence of Ceftazidime 8 μg/ml (Examples 1-56)
// NB: equality with 1 µg/mL counts as no; only MIC of example compound, E. cloacae P99+ strictly below is yes

Examples with answers:
molecule=CNCc1ccc(CC(=O)N[C@@H](Cc2cccc(C(=O)O)c2O)B(O)O)cc1 class=yes
molecule=CC(=O)NCc1ccc(CC(=O)N[C@@H](Cc2cccc(C(=O)O)c2O)B(O)O)cc1 class=no
molecule=Cl.NCCNCc1ccc(C(=O)N[C@@H](Cc2cccc(C(=O)O)c2O)B(O)O)cc1 class=no
molecule=O=C(N[C@@H](Cc1cccc(C(=O)O)c1O)B(O)O)c1cccc(CN(CCO)CCO)c1 class=no
molecule=O=C(N[C@@H](Cc1cccc(C(=O)O)c1O)B(O)O)c1ccc(CN2CCOCC2)cc1 class=no

Dear reviewer, please state whether O=C(N[C@@H](Cc1cccc(C(=O)O)c1O)B(O)O)c1cccc(CNCCCO)c1 has MIC of example compound, E. cloacae P99+ strictly beneath 1 µg/mL. yes

Dear reviewer, please state whether Cl.O=C(N[C@@H](Cc1cccc(C(=O)O)c1O)B(O)O)c1ccc(CN2CCCC(C(=O)O)C2)cc1 (stereo partly shown) has MIC of example compound, E. cloacae P99+ strictly beneath 1 µg/mL. no

====

Molecular target: p99 AmpC β-lactamase (Enterobacter cloacae, UniProt P05364)
Construct: expressed as native untagged proteins; made in house; host or cells: E. coli BL21(DE3)
Sequence (P05364 21-381): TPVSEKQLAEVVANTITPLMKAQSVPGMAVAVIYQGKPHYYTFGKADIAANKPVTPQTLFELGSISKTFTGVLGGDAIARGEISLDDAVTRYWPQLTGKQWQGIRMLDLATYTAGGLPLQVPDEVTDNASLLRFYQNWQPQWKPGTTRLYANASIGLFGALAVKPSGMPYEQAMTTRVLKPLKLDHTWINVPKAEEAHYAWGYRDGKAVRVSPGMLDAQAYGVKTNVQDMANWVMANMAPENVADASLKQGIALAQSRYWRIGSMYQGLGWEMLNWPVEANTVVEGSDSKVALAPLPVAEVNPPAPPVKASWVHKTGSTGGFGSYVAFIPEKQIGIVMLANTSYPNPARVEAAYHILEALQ
Test: β-lactamase enzyme inhibition assay (nitrocefin substrate), P99 AmpC
Format: biochemical
Details: nitrocefin 100 μM, 37° C., PBS pH 7.0; read-out: P99 AmpC IC50
Below is a list of entries, each paired with its recorded pIC50 value.
Please note pIC50 is a logarithmic value: minus log10 of concentration in mol/L. Answer with that number alone.

May I ask what pIC50 has been recorded for Cl.Nc1ccc(C(=O)N[C@@H](Cc2cccc(C(=O)O)c2O)B(O)O)cn1 [Example 7, formate salt] ? 9.00

====

Below is a list of entries, each paired with its recorded log10 IC50 value.
Biological target: CTX-M15 β-lactamase (Escherichia coli)
Construct: expressed as native untagged proteins; made in house; host or cells: E. coli BL21(DE3)
Sequence (Q9EXV5 entry or part of it): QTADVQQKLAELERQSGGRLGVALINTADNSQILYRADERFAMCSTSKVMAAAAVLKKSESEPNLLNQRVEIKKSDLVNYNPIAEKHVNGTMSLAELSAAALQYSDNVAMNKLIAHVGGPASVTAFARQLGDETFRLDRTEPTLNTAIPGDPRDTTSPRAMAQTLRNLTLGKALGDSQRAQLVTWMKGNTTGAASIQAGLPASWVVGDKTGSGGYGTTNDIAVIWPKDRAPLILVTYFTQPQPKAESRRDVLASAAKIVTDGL
Assay: β-lactamase enzyme inhibition assay (nitrocefin substrate), CTXM-15
Type: biochemical
Field: value | Transform: log10 | Quantity: IC50 | Unit: nM

molecule="Cl.Nc1cncc(C(=O)N[C@@H](Cc2cccc(C(=O)O)c2O)B(O)O)c1 [Example 44, hydrochloride]" experimental_result=0.30

May I ask what log10 IC50 has been recorded for O=C(N[C@@H](Cc1cccc(C(=O)O)c1O)B(O)O)c1cccc(CNc2nccs2)c1 ? -0.30

May I ask what log10 IC50 has been recorded for NCCNCc1ccc(CC(=O)N[C@@H](Cc2cccc(C(=O)O)c2O)B(O)O)cc1 ? 0.85

====

Tested on: K. pneumoniae expressing the Class A carbapenemase KPC-2
Test: microbe, parasite or virus in culture
Assay type: cell-based
Conditions: in presence of Ceftazidime 8 μg/ml (Examples 1-56)
Counter-ions that a name gives are not always drawn.
Below is a list of entries, each paired with its recorded MIC of example compound, K. pneumoniae KPC-2 value.
State the answer as a number, implicitly in µg/mL.

compound=CCNCc1ccc(C(=O)N[C@@H](Cc2cccc(C(=O)O)c2O)B(O)O)cc1.Cl system="K. pneumoniae expressing the Class A carbapenemase KPC-2" units=µg/mL experimental_result=0.03
compound="CO/N=C(\\C(=O)N[C@@H](Cc1cccc(C(=O)O)c1O)B(O)O)c1csc(NC(=O)[C@@H](N)CCCCN)n1 [Example 52, hydrochloride]" system="K. pneumoniae expressing the Class A carbapenemase KPC-2" units=µg/mL experimental_result=2
compound=Cl.NCc1ccc(C(=O)N[C@@H](Cc2cccc(C(=O)O)c2O)B(O)O)cc1 system="K. pneumoniae expressing the Class A carbapenemase KPC-2" units=µg/mL experimental_result=0.015
compound=NCCNCc1cccc(C(=O)N[C@@H](Cc2cccc(C(=O)O)c2O)B(O)O)c1 system="K. pneumoniae expressing the Class A carbapenemase KPC-2" units=µg/mL experimental_result=0.06
compound=NCc1cccc(CC(=O)N[C@@H](Cc2cccc(C(=O)O)c2O)B(O)O)c1 system="K. pneumoniae expressing the Class A carbapenemase KPC-2" units=µg/mL experimental_result=0.03
compound=O=C(N[C@@H](Cc1cccc(C(=O)O)c1O)B(O)O)c1cccc(CNCCCO)c1 system="K. pneumoniae expressing the Class A carbapenemase KPC-2" units=µg/mL experimental_result=0.03

May I ask what MIC of example compound, K. pneumoniae KPC-2 has been recorded for CN(C)Cc1cccc(C(=O)N[C@@H](Cc2cccc(C(=O)O)c2O)B(O)O)c1 ? 0.03

May I ask what MIC of example compound, K. pneumoniae KPC-2 has been recorded for O=C(N[C@@H](Cc1cccc(C(=O)O)c1O)B(O)O)c1cccc(CNCc2cccnc2)c1 ? 0.12

May I ask what MIC of example compound, K. pneumoniae KPC-2 has been recorded for CC(=O)N(CCN)Cc1cccc(C(=O)N[C@@H](Cc2cccc(C(=O)O)c2O)B(O)O)c1 ? 0.12

May I ask what MIC of example compound, K. pneumoniae KPC-2 has been recorded for CC(=O)NCc1ccc(CC(=O)N[C@@H](Cc2cccc(C(=O)O)c2O)B(O)O)cc1 ? 4

May I ask what MIC of example compound, K. pneumoniae KPC-2 has been recorded for Cc1cc(NCc2cccc(C(=O)N[C@@H](Cc3cccc(C(=O)O)c3O)B(O)O)c2)no1 ? 2
